Target: human V1aR (Homo sapiens)
Construct: expressed in transfected cells
Assay: Agonist activity at vasopressin V1a receptors, cell-based FLIPR calcium assay
Readout Kind: EC50 (nM)
Use nM as the unit, but write only the number.

Incoming: Fill in reported EC50 for this entry: "CC[C@H](C)[C@@H]1NC(=O)[C@H](Cc2ccccc2)NC(=O)[C@@H](N)CSSC[C@@H](C(=O)N2CCC[C@H]2C(=O)N[C@@H](CCCNCCCCCNC(=O)CC[C@H](NC(=O)[C@H](CCCNC(=N)N)NC(=O)[C@@H]2CCCN2C(=O)[C@H](C)NC(=O)[C@H](CC(N)=O)NC(=O)[C@H](CCC(N)=O)NC(=O)[C@H](Cc2ccccc2)NC(=O)[C@@H](Cc2ccc(OC)cc2)NC(=O)Cc2ccccc2)C(N)=O)C(=O)NCC(N)=O)NC(=O)[C@H](CC(N)=O)NC(=O)[C@H](CCC(N)=O)NC1=O"
Outgoing: 0.69

----------
Biological target: human V1aR (Homo sapiens, UniProt P37288)
Construct: expressed in transfected cells
Sequence (P37288 whole entry): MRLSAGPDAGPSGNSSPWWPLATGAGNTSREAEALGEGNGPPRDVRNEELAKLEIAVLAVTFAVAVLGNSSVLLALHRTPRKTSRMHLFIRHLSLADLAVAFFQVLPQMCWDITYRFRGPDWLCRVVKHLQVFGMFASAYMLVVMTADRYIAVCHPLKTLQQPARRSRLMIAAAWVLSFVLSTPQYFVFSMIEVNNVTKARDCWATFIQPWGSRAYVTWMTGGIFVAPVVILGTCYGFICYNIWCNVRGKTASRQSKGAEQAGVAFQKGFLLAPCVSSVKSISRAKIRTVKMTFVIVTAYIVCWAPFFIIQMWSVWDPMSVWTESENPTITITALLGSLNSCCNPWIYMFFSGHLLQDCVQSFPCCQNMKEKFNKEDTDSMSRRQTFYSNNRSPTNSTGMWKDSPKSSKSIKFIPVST
Assay: Agonist activity at vasopressin V1a receptors, cell-based FLIPR calcium assay
Conditions: read-out: Efficacy Avg. (%)
Readout Kind: Emax (%)
Use % as the unit, but write only the number.

Incoming: Could you please provide reported Emax for "CC[C@H](C)[C@@H]1NC(=O)[C@H](Cc2ccccc2)NC(=O)[C@@H](N)CSSC[C@@H](C(=O)N2CCC[C@H]2C(=O)N[C@@H](CCCNCCCCCC(=O)NCCCC[C@H](NC(=O)[C@H](CCCNC(=N)N)NC(=O)[C@@H]2CCCN2C(=O)[C@H](CCCNC(=N)N)NC(=O)[C@H](CC(N)=O)NC(=O)[C@H](CCC(N)=O)NC(=O)[C@H](Cc2ccccc2)NC(=O)[C@@H](Cc2ccc(OC)cc2)NC(=O)Cc2ccccc2)C(N)=O)C(=O)NCC(N)=O)NC(=O)[C@H](CC(N)=O)NC(=O)[C@H](CCC(N)=O)NC1=O" ? Thanks!
Outgoing: 28

----------
Molecular target: human V1aR (Homo sapiens)
Construct: expressed in transfected cells
Experiment: Agonist activity at vasopressin V1a receptors, cell-based FLIPR calcium assay
Readout Kind: EC50 (nM)
Numeric only. Scale: nM

Incoming: Tell us which EC50 value is on record for CC[C@H](C)[C@@H]1NC(=O)[C@H](Cc2ccccc2)NC(=O)[C@@H](N)CSSC[C@@H](C(=O)N2CCC[C@H]2C(=O)N[C@@H](CCCNCCCCCNC(=O)CC[C@H](NC(=O)[C@H](CCCNC(=N)N)NC(=O)[C@@H]2CCCN2C(=O)[C@H](CCC(N)=O)NC(=O)[C@H](CC(N)=O)NC(=O)[C@H](CCC(N)=O)NC(=O)[C@H](Cc2ccccc2)NC(=O)[C@@H](Cc2ccc(OC)cc2)NC(=O)Cc2ccccc2)C(N)=O)C(=O)NCC(N)=O)NC(=O)[C@H](CC(N)=O)NC(=O)[C@H](CCC(N)=O)NC1=O [Compound 14]
Outgoing: 2.1

----------
Molecular target: human V1aR (Homo sapiens, UniProt P37288)
Construct: expressed in transfected cells
Experiment: Agonist activity at vasopressin V1a receptors, cell-based FLIPR calcium assay
Readout Kind: pEC50
By convention, pEC50 is the negative base-10 log of a molar concentration.

Incoming: Specify reported pEC50 for the molecule shown: "CC[C@H](C)[C@@H]1NC(=O)[C@H](Cc2ccccc2)NC(=O)[C@@H](N)CSSC[C@@H](C(=O)N2CCC[C@H]2C(=O)N[C@@H](CCCNCCCCCNC(=O)CC[C@H](NC(=O)[C@H](CCCNC(=N)N)NC(=O)[C@@H]2CCCN2C(=O)[C@H](CCN)NC(=O)[C@H](CC(N)=O)NC(=O)[C@H](CCC(N)=O)NC(=O)[C@H](Cc2ccccc2)NC(=O)[C@@H](Cc2ccc(OC)cc2)NC(=O)Cc2ccccc2)C(N)=O)C(=O)NCC(N)=O)NC(=O)[C@H](CC(N)=O)NC(=O)[C@H](CCC(N)=O)NC1=O"
Outgoing: 8.62

Incoming: Give the measured pEC50 for "CC[C@H](C)[C@@H]1NC(=O)[C@H](Cc2ccccc2)NC(=O)[C@@H](O)CSSC[C@@H](C(=O)N2CCC[C@H]2C(=O)N[C@@H](CCNC(=O)[C@@H](N)CCCCNC(=O)CC[C@H](NC(=O)[C@H](CCCNC(=N)N)NC(=O)[C@@H]2CCCN2C(=O)[C@H](CCCNC(N)=O)NC(=O)[C@H](CC(N)=O)NC(=O)[C@H](CCC(N)=O)NC(=O)[C@H](Cc2ccccc2)NC(=O)[C@@H](Cc2ccc(OC)cc2)NC(=O)Cc2ccccc2)C(N)=O)C(=O)NCC(N)=O)NC(=O)[C@H](CC(N)=O)NC(=O)[C@H](CCCC(N)=O)NC1=O"
Outgoing: 8.85

Incoming: Let me know recorded pEC50 for "CC[C@H](C)[C@@H]1NC(=O)[C@H](Cc2ccccc2)NC(=O)[C@@H](N)CSSC[C@@H](C(=O)N2CCC[C@H]2C(=O)N[C@@H](CCCNCCCCCC(=O)NCCCC[C@H](NC(=O)[C@H](CCCNC(=N)N)NC(=O)[C@@H]2CCCN2C(=O)[C@H](CCCNC(=N)N)NC(=O)[C@H](CC(N)=O)NC(=O)[C@H](CCC(N)=O)NC(=O)[C@H](Cc2ccccc2)NC(=O)[C@@H](Cc2ccc(OC)cc2)NC(=O)Cc2ccccc2)C(N)=O)C(=O)NCC(N)=O)NC(=O)[C@H](CC(N)=O)NC(=O)[C@H](CCC(N)=O)NC1=O" , thanks.
Outgoing: 8.60

Could you now look at the following molecule, please?
Incoming: Tell me its pEC50 given "CC[C@H](C)[C@@H]1NC(=O)[C@H](Cc2ccccc2)NC(=O)[C@@H](O)CSSC[C@@H](C(=O)N2CCC[C@H]2C(=O)N[C@@H](CCCNCCCCCNC(=O)CC[C@H](NC(=O)[C@H](CCCNC(=N)N)NC(=O)[C@@H]2CCCN2C(=O)[C@H](C)NC(=O)[C@H](CC(N)=O)NC(=O)[C@H](CCC(N)=O)NC(=O)[C@H](Cc2ccccc2)NC(=O)[C@@H](Cc2ccc(OC)cc2)NC(=O)Cc2ccccc2)C(N)=O)C(=O)NCC(N)=O)NC(=O)[C@H](CC(N)=O)NC(=O)[C@H](CCC(N)=O)NC1=O" as the entry.
Outgoing: 8.77

----------
Target: human V1aR (Homo sapiens, UniProt P37288)
Construct: expressed in transfected cells
Test: Agonist activity at vasopressin V1a receptors, cell-based FLIPR calcium assay
Readout Kind: EC50 (nM)
Number in nM, nothing else.

Incoming: State its EC50: "CC[C@H](C)[C@@H]1NC(=O)[C@H](Cc2ccccc2)NC(=O)[C@@H](N)CSSC[C@@H](C(=O)N2CCC[C@H]2C(=O)N[C@@H](CCCNCCCCCCNC(=O)CC[C@H](NC(=O)[C@H](CCCNC(=N)N)NC(=O)[C@@H]2CCCN2C(=O)[C@H](C)NC(=O)[C@H](CC(N)=O)NC(=O)[C@H](CCC(N)=O)NC(=O)[C@H](Cc2ccccc2)NC(=O)[C@@H](Cc2ccc(OC)cc2)NC(=O)Cc2ccccc2)C(N)=O)C(=O)NCC(N)=O)NC(=O)[C@H](CC(N)=O)NC(=O)[C@H](CCC(N)=O)NC1=O"
Outgoing: 1.5

----------
Target: human V1aR (Homo sapiens, UniProt P37288)
Construct: expressed in transfected cells
Assay: Agonist activity at vasopressin V1a receptors, cell-based FLIPR calcium assay
Readout Kind: pEC50
Worth noting: pEC50 values are minus log10 of concentrations stated in mol/L.

Incoming: Note down pEC50 recorded for "CC[C@H](C)[C@@H]1NC(=O)[C@H](Cc2ccccc2)NC(=O)[C@@H](N)CSSC[C@@H](C(=O)N2CCC[C@H]2C(=O)N[C@@H](CCCNCCCCCNC(=O)CC[C@H](NC(=O)[C@H](CCCNC(=N)N)NC(=O)[C@@H]2CCCN2C(=O)[C@H](CO)NC(=O)[C@H](CC(N)=O)NC(=O)[C@H](CCC(N)=O)NC(=O)[C@H](Cc2ccccc2)NC(=O)[C@@H](Cc2ccc(OC)cc2)NC(=O)Cc2ccccc2)C(N)=O)C(=O)NCC(N)=O)NC(=O)[C@H](CC(N)=O)NC(=O)[C@H](CCC(N)=O)NC1=O"
Outgoing: 8.66

----------
Target: human V1aR (Homo sapiens, UniProt P37288)
Construct: expressed in transfected cells
Assay: Agonist activity at vasopressin V1a receptors, cell-based FLIPR calcium assay
Readout Kind: pEC50
# pEC50 is unitless: minus log10 of the molar concentration; print number only

Incoming: Under human V1aR (Homo sapiens, UniProt P37288), report pEC50 for "CC[C@H](C)[C@@H]1NC(=O)[C@H](Cc2ccccc2)NC(=O)[C@@H](N)CSSC[C@@H](C(=O)N2CCC[C@H]2C(=O)N[C@@H](CCCNCCCCCNC(=O)CCNC(=O)CC[C@H](NC(=O)[C@H](CCCNC(=N)N)NC(=O)[C@@H]2CCCN2C(=O)[C@H](C)NC(=O)[C@H](CC(N)=O)NC(=O)[C@H](CCC(N)=O)NC(=O)[C@H](Cc2ccccc2)NC(=O)[C@@H](Cc2ccc(OC)cc2)NC(=O)Cc2ccccc2)C(N)=O)C(=O)NCC(N)=O)NC(=O)[C@H](CC(N)=O)NC(=O)[C@H](CCC(N)=O)NC1=O"
Outgoing: 8.57

Just for reference, patent US20160122386A1 is where these values come from.
